Where do these numbers come from? They come from ChEMBL document CHEMBL1201862.

- Test system: LOX IMVI
- assayExplanation: NCI tumour cell line growth inhibition, 48 h
Calls of active or inactive are those of the source. Cut-off read from the data, not from the text of the source: active = GI50 up to about 1.1 µM and inactive = higher.
The reply should be one of these categories: active, inactive

Please review the entries below; each comes with its answer.
* CC1CCC(C(C)C)C(O[C@@H]2OC(=O)C[C@@H]2Sc2ccccc2)C1 (some centres not stated) | inactive
* COC(=O)C(CCc1ccccc1I)C1=CCC2(CC1)OCCO2 (configuration not stated) | inactive

State the result this test recorded for NC(=O)c1cccc(C2OC(COP(=O)(O)O)C(O)C2O)c1 (configuration not stated) . inactive

Status in this test for O=C1CSC2(CC(/C=C/C=C/c3ccccc3)=NN2c2cccc(S(=O)(=O)O)c2)N1c1nc2ccccc2s1 (configuration not stated) ? inactive

What call does the record list for CCOc1ccccc1/C=C(/C#N)C(N)=O ? inactive

Any idea what this test logged for CN(C)CCNC(=O)c1cccc2[nH]c(-c3ccncc3)nc12 ? active

How was C=CCN1C(=O)C[C@H](Cc2ccccc2)NC(=O)C[C@H](Cc2ccccc2)N(CC=C)C(=O)C[C@H](Cc2ccccc2)NC(=O)C[C@@H]1Cc1ccccc1 classified in this test? inactive
